Tested on: RXF 393 renal
ASSAY_COMMENT: NCI tumour cell line growth inhibition, 48 h
Provide the reported TGI of each item.

Consider `Cc1cccc(C)c1CO` . Its measured TGI is > 100 µM

Consider COc1ccc(N2C(=O)[C@H]3[C@H]4CC(C(C)(C)C)CC[C@H]4c4c(n(C)c5ccccc45)[C@H]3C2=O)cc1 (stereo partly specified) . Its measured TGI is > 100 µM

Consider `Oc1cc2c3c(c1)CCCN3CCC2` . Its measured TGI is > 10 µM

Consider `O=S(=O)(c1ccccc1)C(c1ccc2ccccc2n1)S(=O)(=O)c1ccccc1` . Its measured TGI is > 100 µM

Consider `CCOC(=O)/C(=C\c1ccc(N(CCC#N)CCC#N)cc1)NC(=O)c1cc([N+](=O)[O-])ccc1Cl` . Its measured TGI is > 100 µM

Consider `Cc1c(S(=O)(=O)O)ccc(N=Nc2c(O)c(C(=O)O)cc3ccccc23)c1Cl` . Its measured TGI is > 100 µM

Consider CN1C/C(=C\c2cccs2)C2=NN(C)C(c3cccs3)C2C1 (stereo unspecified) . Its measured TGI is > 100 µM

Consider `C1CCCCC2(CCCCCCCCC3(CCC1)OCCO3)OCCO2` . Its measured TGI is > 100 µM

Consider `c1ccc2c(NCCCCCCNc3c4ccccc4nc4ccccc34)c3ccccc3nc2c1` . Its measured TGI is 1.56 µM

Consider `O=S(=O)(NCCCNc1nccc(-c2c(-c3ccc(F)c(O)c3)nc3sccn23)n1)c1ccc(F)cc1` . Its measured TGI is 4.68 µM

Consider `C/C(=N\Nc1cc(C)c2ccccc2n1)c1ccccn1` . Its measured TGI is 1.82 µM

Consider `COc1cc(-c2ccc(-c3ccc(C(=N)N)nc3)s2)cc(OC)c1OC` . Its measured TGI is 4.83 µM

Consider `CCN(CC)c1ccc2cc(C(N)=S)c(=N)oc2c1` . Its measured TGI is > 100 µM

Consider `CCN(Cc1ccccc1)c1ccc(CO)c(Cl)c1` . Its measured TGI is > 49.7 µM

Consider CCC(C(=O)C(=O)C(CC)P1(=O)OC(C)(C)CN1C(C)(C)C)P1(=O)OC(C)(C)CN1C(C)(C)C (stereo unspecified) . Its measured TGI is > 100 µM

Consider `COc1ccc(NC(=O)CC/C(CC(=O)C(C)(C)C)=N\NC(=O)C(=O)NN)cc1` . Its measured TGI is > 100 µM

Consider `Cc1cc(C)c(S(=O)(=O)N2CCCN(S(=O)(=O)c3c(C)cc(C)cc3C)OCCCO2)c(C)c1` . Its measured TGI is > 100 µM

Consider `COC(=O)c1ccc(NC(=O)O/N=C(\Cl)C(C)C)cc1` . Its measured TGI is 19.6 µM

Consider `Cc1cc(=O)oc2c(C)c(O)ccc12` . Its measured TGI is > 100 µM

Consider CC(O)c1cc2c(s1)C(=O)c1ccsc1C2=O (stereo unspecified) . Its measured TGI is 0.56 µM

Consider CCCCCCCCCCCCCCCCCCN(C)C(COC)COP(=O)([O-])OCC[N+](C)(C)C (stereo unspecified) . Its measured TGI is 3.12 µM

Consider `O=C(O)Cc1cc(=O)[nH]c2c1/C(=N/O)CCC2` . Its measured TGI is > 100 µM

Consider `COc1ccc(-c2cc(-c3ccc(Cl)cc3)nc(SCCCC(=O)NO)n2)cc1` . Its measured TGI is 1.52 µM

Consider `CCC(=O)Nc1ccccc1C#C/C=C\C#Cc1ccccc1SC` . Its measured TGI is 1.84 µM

Consider CCOC(=O)NC1C2CC(=O)OC(O2)C1OC(C)=O (stereo unspecified) . Its measured TGI is > 100 µM

Consider `COc1ccc(/C=C2\CN(C)C/C(=C\c3ccc(OC)cc3)C2=O)cc1` . Its measured TGI is > 100 µM

Consider `CS(=O)(=O)CCNCc1ccc(-c2ccc3ncnc(Nc4ccc(OCc5ccccc5)c(Br)c4)c3c2)o1` . Its measured TGI is 8.19 µM

Consider `N#CC(C#N)=C/C=C(\Sc1c(Cl)c(Cl)nc(Cl)c1Cl)c1ccc(Cl)cc1` . Its measured TGI is 40 µM

Consider O=C(O)NC(c1ccccc1)C(NC(=O)c1ccccc1)c1ccccc1 (stereo unspecified) . Its measured TGI is > 100 µM

Consider CC(=O)OC[C@]1(C)CCCC2(C)C1CCC1C=C(C)[C@H]3CCC12C3 (stereo partly specified) . Its measured TGI is > 100 µM

Consider `NC(=O)c1cc2ccc(O)cc2o/c1=N/NC(=O)c1ccccc1` . Its measured TGI is > 100 µM

Consider `O=P1(Oc2ccc(Cl)cc2Cl)Oc2ccc3ccccc3c2-c2c(ccc3ccccc23)O1` . Its measured TGI is 34.7 µM

Consider CN(C)CC1CN=C(N)O1 (stereo unspecified) . Its measured TGI is > 100 µM

Consider COc1ccc2c3c([nH]c2c1[N+](=O)[O-])C(C)N(Cc1ccc([N+](=O)[O-])cc1)CC3 (stereo unspecified) . Its measured TGI is 57.1 µM

Consider `CC(=O)c1cccc(C)c1C(=O)O` . Its measured TGI is > 100 µM

Consider Cc1nc2sc(C(=O)Nc3cccc4ccccc34)c(N)c2cc1C(O)c1ccccc1 (stereo unspecified) . Its measured TGI is 24.7 µM
